# testedOn: T1, recombinant human 4R0N tau (human, UniProt P10636 2-758)
# T1 construct: also called P10636-6
# testDescription: SPR, Biacore T200, antibody captured on anti-human Fc, tau as analyte, 1:1 fit
parameter: kon (M⁻¹ s⁻¹)
Reply numerically in M⁻¹ s⁻¹, unit not repeated.

Below, 2 binders whose answers are already recorded.
Q: Give the measured kon of hu3D6VHv1bA11/L2-DIM3 (antibody, V domains shown, Humanized antibody with human Fc) VH: EVQLVQSGAEVVKPGATVKISCKASGFNIKDYYLHWVRQRPGQGLEWIGWIDPENGDTVYDPKFQGRATITADTSTDTAYLQLGSLTSEDTAVYFCSTLDFWGQGTLVTVSS VL: DVVMTQSPLSLPVTLGQPASISCKSSQSLLDSDGKTYLNWLQQRPGQSPRRLIYLVGKGDSGVPDRFSGSGSGTDFTLKISRVEAEDVGVYYCWQGTHFPYTFGGGTKLEIK .
A: 3.93e+06

Q: Give the measured kon of hu3D6VHv1bA11/L2-DIM5 (antibody, V domains shown, Humanized antibody with human Fc) VH: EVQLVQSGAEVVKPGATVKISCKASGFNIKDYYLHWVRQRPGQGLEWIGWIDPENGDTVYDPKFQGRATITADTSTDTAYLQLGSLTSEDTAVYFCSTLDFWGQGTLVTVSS VL: DVVMTQSPLSLPVTLGQPASISCKSSQSLLDSDGKTYLNWLQQRPGQSPRRLIYLVGKTDSGVPDRFSGSGSGTDFTLKISRVEAEDVGVYYCWQGTHFPYTFGGGTKLEIK .
A: 4.02e+06

More entries:
Q: Give the measured kon of hu3D6VHv1bA11/L2-DIM22 (antibody, V domains shown, Humanized antibody with human Fc; also called hu3D6VHv1bA11 / hu3D6VLv2 L50G) VH: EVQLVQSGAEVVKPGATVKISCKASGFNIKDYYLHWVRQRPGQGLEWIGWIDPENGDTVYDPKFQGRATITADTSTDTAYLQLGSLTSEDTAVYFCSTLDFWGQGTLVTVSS VL: DVVMTQSPLSLPVTLGQPASISCKSSQSLLDSDGKTYLNWLLQRPGQSPRRLIYGVSKLDSGVPDRFSGSGSGTDFTLKISRVEAEDVGVYYCWQGTHFPYTFGGGTKLEIK .
A: 3.54e+06
